Entry source: patent US20180016327A1

Target: T1, human C5 (human, UniProt P01031 19-673; P01031 678-1676, Beta and alpha chains are disulfide-linked and the protein is glycosylated.)
T1 construct: Either in-house recombinant C5 or plasma derived C5 (CALBIOCHEM) was used; also called recombinant human C5; plasma derived human C5
Experiment: Biacore, captured antibody, pH 7.4, 37 C;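 also: biacore binding response of anti-C5 antibody light chain variants captured on chip with human C5 injected, ACES running buffer containing 1.2 mM CaCl₂, parent light chain antibody set to 100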
Assay Readout: % binding (parent = 100) (%)
Numbers only, in %.

# example entries with known answers
CFP0018 18L 96I (antibody, V domains shown) VH: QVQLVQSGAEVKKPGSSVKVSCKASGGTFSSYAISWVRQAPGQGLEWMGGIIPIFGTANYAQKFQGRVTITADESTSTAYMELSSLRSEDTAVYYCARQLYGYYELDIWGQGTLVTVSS VL: DIQMTQSPSSLSASVGDRVTITCRASQSISDDLAWYQQKPGKAPKLLIYEASSLQSGVPSRFSGSGSGTDFTLTISSLQPEDFATYYCQQYNSYPITFGQGTKVEIK	56
CFP0017 17L 53H (antibody, V domains shown) VH: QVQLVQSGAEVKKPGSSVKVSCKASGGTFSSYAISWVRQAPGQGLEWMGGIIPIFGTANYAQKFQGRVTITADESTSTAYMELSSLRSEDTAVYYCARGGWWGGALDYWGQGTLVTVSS VL: DIQMTQSPSSLSASVGDRVTITCRASQSIEDDLAWYQQKPGKAPKLLIYHASHLQSGVPSRFSGSGSGTDFTLTISSLQPEDFATYYCQQSDSYPLTFGQGTKVEIK	69.6

Parameters: items (list). Returns: % binding (parent = 100) for each item.
1. CFP0011 11L 93R (antibody, V domains shown) VH: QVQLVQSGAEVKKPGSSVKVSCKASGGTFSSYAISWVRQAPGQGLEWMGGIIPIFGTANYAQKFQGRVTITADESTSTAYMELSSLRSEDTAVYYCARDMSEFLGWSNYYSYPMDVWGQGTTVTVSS VL: DIQMTQSPSSLSASVGDRVTITCRASQSIEDDLAWYQQKPGKAPKLLIYHASSLQSGVPSRFSGSGSGTDFTLTISSLQPEDFATYYCQQSDRSPYTFGQGTKVEIK
2. CFP0017 17L 93D (antibody, V domains shown) VH: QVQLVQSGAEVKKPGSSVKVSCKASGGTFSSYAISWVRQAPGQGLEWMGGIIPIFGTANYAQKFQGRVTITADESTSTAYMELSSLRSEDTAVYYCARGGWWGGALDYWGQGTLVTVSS VL: DIQMTQSPSSLSASVGDRVTITCRASQSIEDDLAWYQQKPGKAPKLLIYHASSLQSGVPSRFSGSGSGTDFTLTISSLQPEDFATYYCQQSDDYPLTFGQGTKVEIK

a:
11.7
22.9
